Every entry's value here was drawn from the supplement of paper PMC6555819.

# Tested on: PXR homodimer (NR concentration 270 nM)
# testDetails: PBM binding z-score (relative to random genomic background probes); higher = stronger binding; sequences stand for … in GC…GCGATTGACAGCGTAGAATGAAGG
Reported PBM binding z-score by item:
experimentalEndpoint: PBM binding z-score

In [3]: df
Out[3]:
                       monomersequence  observedvalue
 0  AGAACGAGGGCACGCTAAGTTGATAGCAGAGTAG         0.0616
 1  ATCTCTAGGTAAAGAGAGTTCAGTGAATGCAAAT           3.18
 2  CCTACTGAGCCATTCAGAGGTCATTGATCATATG           3.63
 3  GACACAGGGTCAAGGCCAGAGTACGCGTATTGAT          0.315
 4  TCTTGTAGATCAAGCAGGTTATGAAAGCCTGAGT          0.201
 5  TCATATAGGTAAAGGTGAAAGTCGAACGATATGA         -0.047
 6  GTACCAAGGTGAATAGGTCGTTAATGAGTAGGCG          0.393
 7  AGTCAATGTTCACTAGGTAACGTAAGATTCAGCT         -0.202
 8  TCTCGGAGGACACGAAAGGTCAGAGCTCGACATC          0.404
 9  CAAACTACGTCAAAGGTCAAAGTCGAGCCAACCA           1.77
10  TCTAGTAGTTGAAGGGCAACCGACGAGTCCGTTT          0.346
11  GGAACGAGGGCTTTCGAGTTGATAGCATGGCGAT         -0.343

###

# Tested on: LXRb:RXRa (NR concentration 270 nM, RXRa partner concentration 90 nM)
# testDetails: PBM binding z-score (relative to random genomic background probes); higher = stronger binding; sequences stand for … in GC…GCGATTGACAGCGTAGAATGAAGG
experimentalEndpoint: PBM binding z-score

In [3]: df
Out[3]:
                       monomersequence  observedvalue
 0  AGTCTAAGTTCAGGACGAGGTAACGTAAAGCACG          0.821
 1  TATACAGGGTCAAAGGCCAGAATACGAATGTCGA           4.62
 2  CGTCAAAGTTCAAGGTGACGTAACAGAAAGCAGC           3.49
 3  CTACTAAGGTGAACAAGGTCGTTGATTACTATTC           2.02
 4  TAGCCTAGGTCATGGGCCAGTACACCACGCGAAC           2.41
 5  CCTAGTTGGTCAGGAGGTCACACCCCGGATATGA           3.15
 6  GCATATAGGTAATACAAGGTAAAAGTCCGATTGT         -0.189
 7  TGAATGGGGTTAAAGATCAGGGAACGTGGCGTCG           4.01
 8  CCGACTGGGGGAAGGTTACCATAACGCACAGCCA           2.11
 9  ATATGTAGGTTAAGGGTCATTCAAGTTGGTTCGC           4.68
10  ATACCCAGGTGATCGTGAGGTCGTTGATACTAAC           1.07
11  TTGCCTAGGTCAGATCGGGCCAGTATACGCTATA          0.692
